Measured PBM E-score, listed per entry.
- system-tested: Pdr3 (UniProt P33200)
- Sequence: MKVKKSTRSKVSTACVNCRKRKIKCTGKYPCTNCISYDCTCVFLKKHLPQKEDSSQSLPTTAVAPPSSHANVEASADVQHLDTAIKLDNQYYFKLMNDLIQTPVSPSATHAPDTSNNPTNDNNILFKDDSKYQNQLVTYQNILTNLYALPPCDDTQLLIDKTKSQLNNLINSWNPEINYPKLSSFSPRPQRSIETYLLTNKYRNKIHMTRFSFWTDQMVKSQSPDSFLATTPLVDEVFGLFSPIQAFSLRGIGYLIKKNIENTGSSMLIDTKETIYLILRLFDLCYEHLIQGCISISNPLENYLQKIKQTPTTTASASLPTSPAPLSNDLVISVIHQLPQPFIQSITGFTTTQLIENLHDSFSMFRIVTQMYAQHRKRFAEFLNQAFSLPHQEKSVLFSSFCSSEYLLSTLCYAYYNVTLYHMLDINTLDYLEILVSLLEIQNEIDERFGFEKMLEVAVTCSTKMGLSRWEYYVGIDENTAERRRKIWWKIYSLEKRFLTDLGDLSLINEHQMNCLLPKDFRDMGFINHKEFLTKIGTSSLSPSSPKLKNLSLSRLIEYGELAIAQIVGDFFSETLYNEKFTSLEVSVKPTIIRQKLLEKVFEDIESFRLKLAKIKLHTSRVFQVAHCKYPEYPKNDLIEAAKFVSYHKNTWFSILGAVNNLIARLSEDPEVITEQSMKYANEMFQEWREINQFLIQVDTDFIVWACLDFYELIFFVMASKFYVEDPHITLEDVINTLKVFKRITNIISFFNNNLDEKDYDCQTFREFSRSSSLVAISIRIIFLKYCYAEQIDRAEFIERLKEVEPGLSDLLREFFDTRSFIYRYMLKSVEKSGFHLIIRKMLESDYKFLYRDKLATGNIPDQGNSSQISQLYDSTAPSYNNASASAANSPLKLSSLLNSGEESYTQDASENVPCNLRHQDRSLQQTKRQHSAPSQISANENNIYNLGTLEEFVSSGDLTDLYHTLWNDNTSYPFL
- experiment-summary: PBM E-score (8-mer binding enrichment) (E-score (-0.5 to 0.5)); higher = stronger / more preferred TF binding
- measurement-conditions: protein concentration: 200 nM; construct: GST-full length
Whole data set: some 33,000 sequences, median “E-score (-0.5 to 0.5)” near -0.035, cut for the highest 2% near 0.35. The list comes from a sample in which the highest values are over-represented; it also holds close analogues and randomly drawn sequences.
Format: numeric value only, no unit, no commentary.

Would you please look over these solved cases?
AAGGAATG 0.126
CCGGGACA 0.376
AAATCCAT 0.17
AGGAAAAA -0.157
GGACGGAC 0.293

[ask] Fill in the blank: the reported PBM E-score of GATCGGGA is ____.
[reply] 0.171

[ask] Also AAGGTCAC , if possible.
[reply] -0.213

[ask] Cool, now AGCCTCGG
[reply] 0.156

[ask] Again, but for CGACGGAC
[reply] 0.342

[ask] Moving on to the next sequence: GACCCCGA
[reply] 0.109

[ask] Note, next up: ATCAGTCA
[reply] 0.0413

[ask] Next sequence: CCGGGGCG
[reply] 0.374

[ask] Thanks! And CAGAACGC ?
[reply] 0.0429

[ask] Next entry: CATTTCCC
[reply] 0.203

[ask] Next sequence up: TGACGAAA
[reply] -0.112

[ask] Would you mind doing AGGCGCAC as well?
[reply] 0.147

[ask] What about this sequence? ACGTCTTG
[reply] -0.178

[ask] Also need ATTTTCCG , thanks.
[reply] 0.432

[ask] Do the same for GCGGGCAC please
[reply] 0.216
